Target or test system: human PD1-6His (human)
Sequence (chain, as listed by the source): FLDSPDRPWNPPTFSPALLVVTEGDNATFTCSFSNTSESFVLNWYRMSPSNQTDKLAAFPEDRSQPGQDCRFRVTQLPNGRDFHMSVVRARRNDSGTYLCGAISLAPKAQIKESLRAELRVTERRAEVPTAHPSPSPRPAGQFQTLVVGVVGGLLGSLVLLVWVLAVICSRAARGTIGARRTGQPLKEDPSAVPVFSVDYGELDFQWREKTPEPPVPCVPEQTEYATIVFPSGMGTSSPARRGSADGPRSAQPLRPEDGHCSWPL
Measurement description: ELISA
Parameter: pEC50. Scope: all listed entries.
The quantity pEC50 is defined as the negative base-10 logarithm of the molar concentration.

P-1148 (antibody, V domains shown) VH: QVQLVQSGVEVKKPGASVKVSCKASGYTFTNYYMYWVRQAPGQGLEWMGGINPSNGGTNFAQKFQGRVTLTTDSSTTTAYMELKSLQFDDTAVYYCARRDYRFDMGFDYWGQGTTVTVSS VL: EIVLTQSPATLSLSPGERATLSCRASQGVSTSGYSYLHWYQQKPGQAPRLLIYLASYRASGVPARFSGSGSGTDFTLTISSLEPEDFAVYYCQHSRDLPLTFGGGTKVEIKR : 10.03
P-1151 (antibody, V domains shown) VH: QVQLVQSGVEVKKPGASVKVSCKASGYTFTNYYMYWVRQAPGQGLEWMGGINPSNGGTNYAQKFQGRVTLTTDSSTTTAYMELKSLQFDDTAVYYCARRDYRFDMGFDYWGQGTTVTVSS VL: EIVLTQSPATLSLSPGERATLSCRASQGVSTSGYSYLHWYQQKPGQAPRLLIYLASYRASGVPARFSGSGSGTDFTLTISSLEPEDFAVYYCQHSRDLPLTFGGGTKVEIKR : 10.19
P-1153 (antibody, V domains shown) VH: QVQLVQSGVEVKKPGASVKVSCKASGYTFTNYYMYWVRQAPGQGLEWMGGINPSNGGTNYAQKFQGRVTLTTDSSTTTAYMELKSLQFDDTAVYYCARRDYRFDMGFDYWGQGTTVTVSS VL: EIVLTQSPATLSLSPGERATLSCRASQGVSTSGYSYLAWYQQKPGQAPRLLIYLASYRASGVPARFSGSGSGTDFTLTISSLEPEDFAVYYCQHSRDLPLTFGGGTKVEIKR : 9.96

Continue with the binder presented below.
Exercise: For P-1150 (antibody, V domains shown) VH: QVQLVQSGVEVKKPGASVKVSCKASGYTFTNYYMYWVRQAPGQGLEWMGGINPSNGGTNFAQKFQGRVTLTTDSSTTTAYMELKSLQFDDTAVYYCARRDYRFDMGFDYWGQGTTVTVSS VL: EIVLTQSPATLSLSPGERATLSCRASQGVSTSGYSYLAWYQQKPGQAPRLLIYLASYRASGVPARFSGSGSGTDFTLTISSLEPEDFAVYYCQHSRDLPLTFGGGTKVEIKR , what is its reported pEC50?
Key: 10.06
